test: Phase 1 trial: plasma pharmacokinetics; format: in vivo; conditions: human, 160 mg, Cycle 1 Day 1, 160 mg BID (n = 23), read-out: AUCINF_obs mean
MEASURED PARAMETER: AUC(0-inf) (ng·h/mL)
Please state the figure in ng·h/mL; there is no need to write the unit.

Need AUC(0-inf) of COc1ccc(CN2C3CC2CN(c2ccc(-c4cc(N5CC(C)(O)C5)cn5ncc(C#N)c45)cn2)C3)cn1 [SY-5007] , thanks.
21300

---

molecular target: hERG potassium channel (Homo sapiens); experiment: hERG whole-cell patch clamp; assay type: cell-based; conditions: ± 368.5 nM, read-out: hERG current IC50
Sequence (Q12809 whole entry): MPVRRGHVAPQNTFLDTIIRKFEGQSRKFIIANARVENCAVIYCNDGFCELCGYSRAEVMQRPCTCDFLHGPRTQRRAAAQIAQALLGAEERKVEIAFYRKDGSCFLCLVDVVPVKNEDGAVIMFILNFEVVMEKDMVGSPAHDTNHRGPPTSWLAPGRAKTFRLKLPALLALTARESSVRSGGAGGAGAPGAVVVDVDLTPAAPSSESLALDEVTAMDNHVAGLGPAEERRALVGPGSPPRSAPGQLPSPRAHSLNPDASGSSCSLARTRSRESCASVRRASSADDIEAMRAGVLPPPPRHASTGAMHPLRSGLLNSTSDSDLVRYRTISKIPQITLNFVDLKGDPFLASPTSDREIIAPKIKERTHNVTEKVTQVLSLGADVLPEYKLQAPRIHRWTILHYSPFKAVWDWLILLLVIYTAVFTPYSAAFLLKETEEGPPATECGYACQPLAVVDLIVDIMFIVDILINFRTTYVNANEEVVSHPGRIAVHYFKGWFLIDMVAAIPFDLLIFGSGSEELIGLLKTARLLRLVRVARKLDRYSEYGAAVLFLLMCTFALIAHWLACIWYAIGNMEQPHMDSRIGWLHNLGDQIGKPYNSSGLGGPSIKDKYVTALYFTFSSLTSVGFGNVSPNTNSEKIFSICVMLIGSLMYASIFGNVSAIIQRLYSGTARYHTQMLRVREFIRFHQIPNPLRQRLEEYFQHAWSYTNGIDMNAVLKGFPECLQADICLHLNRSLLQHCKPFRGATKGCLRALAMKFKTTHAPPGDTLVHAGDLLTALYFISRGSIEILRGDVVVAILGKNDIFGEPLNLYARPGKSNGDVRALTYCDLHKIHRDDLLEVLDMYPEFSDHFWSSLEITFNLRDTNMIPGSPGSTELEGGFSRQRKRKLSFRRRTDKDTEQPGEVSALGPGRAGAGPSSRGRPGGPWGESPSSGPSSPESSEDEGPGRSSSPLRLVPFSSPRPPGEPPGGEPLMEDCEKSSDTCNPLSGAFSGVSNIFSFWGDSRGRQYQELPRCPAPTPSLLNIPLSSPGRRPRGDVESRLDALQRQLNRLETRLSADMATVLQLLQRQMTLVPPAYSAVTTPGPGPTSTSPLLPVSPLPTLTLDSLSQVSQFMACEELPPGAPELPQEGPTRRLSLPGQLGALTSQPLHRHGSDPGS
MEASURED PARAMETER: pIC50
To interpret pIC50, take it as minus log10 of a concentration measured in moles per litre.

If you can, please state the reported pIC50 value of `COc1ccc(CN2C3CC2CN(c2ccc(-c4cc(N5CC(C)(O)C5)cn5ncc(C#N)c45)cn2)C3)cn1` .
5.48

---

assay: Phase 1 trial: plasma pharmacokinetics; format: in vivo; settings: human, oral, 80 mg, Cycle 1 Day 28, 80 mg BID (n = 3), read-out: T1/2 mean (converted)
MEASURED PARAMETER: half-life (h)
Give the quantity in h, number only.

Tell me the measured half-life of `COc1ccc(CN2C3CC2CN(c2ccc(-c4cc(N5CC(C)(O)C5)cn5ncc(C#N)c45)cn2)C3)cn1` , please.
5.5

---

experiment: Phase 1 trial: plasma pharmacokinetics; assay type: in vivo; settings: human, oral, 120 mg, Cycle 1 Day 28, 120 mg BID (n = 3), read-out: MRTINF_obs mean
MEASURED PARAMETER: MRT inf (h)
Answer format: numeric, h implied, no suffix.

Param item = COc1ccc(CN2C3CC2CN(c2ccc(-c4cc(N5CC(C)(O)C5)cn5ncc(C#N)c45)cn2)C3)cn1 [SY-5007] ; retrieve measured MRT inf.
10.5

---

experiment: Phase 1 trial: plasma pharmacokinetics; assay type: in vivo; conditions: human, oral, 40 mg, Cycle 1 Day 28, 40 mg BID (n = 3), read-out: T1/2 mean (converted)
MEASURED PARAMETER: half-life (h)
Record the value in h, omitting the unit from your answer.

Give its half-life value. Item: `COc1ccc(CN2C3CC2CN(c2ccc(-c4cc(N5CC(C)(O)C5)cn5ncc(C#N)c45)cn2)C3)cn1`
5

---

test: Phase 1 trial: plasma pharmacokinetics; type: in vivo; conditions: human, 160 mg, Cycle 1 Day 28, 160 mg BID (n = 15), read-out: MRTINF_obs mean
MEASURED PARAMETER: MRT inf
Express the reported value numerically, then name its unit.

State the recorded MRT inf for this entry: `COc1ccc(CN2C3CC2CN(c2ccc(-c4cc(N5CC(C)(O)C5)cn5ncc(C#N)c45)cn2)C3)cn1`
13.9 h

---

test: Pharmacokinetics in beagles; type: in vivo; settings: both sexes, beagle, dog, plasma, po; gavage 5 mg/kg
MEASURED PARAMETER: Cmax (ng/mL)
Number in ng/mL, nothing else.

Using the record for `COc1ccc(CN2C3CC2CN(c2ccc(-c4cc(N5CC(C)(O)C5)cn5ncc(C#N)c45)cn2)C3)cn1` , report its Cmax.
1630

---

Experiment: Phase 1 trial: plasma pharmacokinetics
Format: in vivo
Conditions: human, 160 mg, Cycle 1 Day 1, 160 mg BID (n = 23), read-out: AUC0–12 h mean
Description: Serial plasma samples were also collected in each patient after the first dose and during multiple-dose administration on Cycle 1 Day 28.
MEASURED PARAMETER: AUC(0-t) (ng·h/mL)
Expressed in ng·h/mL, but write only the number.

AUC(0-t) lookup needed for `COc1ccc(CN2C3CC2CN(c2ccc(-c4cc(N5CC(C)(O)C5)cn5ncc(C#N)c45)cn2)C3)cn1` , thanks.
16700

---

experiment: 28-day repeat-dose toxicity; format: in vivo; details: male, SD, rat, plasma, po; males 30 mg/kg; read-out: AUClast at STD10, day 28
MEASURED PARAMETER: AUC(0-t) (µg·h/mL)
Answer in µg·h/mL, number only, no unit symbol.

Consider the compound `COc1ccc(CN2C3CC2CN(c2ccc(-c4cc(N5CC(C)(O)C5)cn5ncc(C#N)c45)cn2)C3)cn1` and give its measured AUC(0-t).
111

---

assay: Phase 1 trial: plasma pharmacokinetics; format: in vivo; conditions: human, oral, 40 mg, Cycle 1 Day 28, 40 mg BID (n = 3), read-out: Tmax mean
MEASURED PARAMETER: Tmax (min)
The answer is to be given in min; state only the numeric part.

Item under review: COc1ccc(CN2C3CC2CN(c2ccc(-c4cc(N5CC(C)(O)C5)cn5ncc(C#N)c45)cn2)C3)cn1 [SY-5007] . Reported Tmax?
30
